experimental.system: human Mnk2a (Homo sapiens (Human))
assay.notes: Mnk2a in vitro kinase assay (indirect competitive fluorescence polarization)
condition.parameters: pre-activated GST-Mnk2a 2.5 nM, 20 μM ATP, 30 μM substrate peptide; read-out: MNK2 IC50
Where a name gives a salt, the structure may show the parent alone.
Exam item: assign yes to entries whose IC50 is below 20 nM and no to entries at or above 20 nM. Note that a value of exactly 20 nM receives no.

Previously resolved entries follow.
compound	class
CNC(=O)c1sc2ncnc(Nc3ccc(F)cc3OC(C)CN)c2c1C (centres unmarked)	no
Cc1c(C(=O)O)sc2ncnc(Nc3ccc(F)cc3OC(C)CN)c12 (centres unmarked) [Compound 7, trifluoroacetate]	yes
Cc1c(C(=O)NCC#N)sc2ncnc(Nc3ccc(C#N)cc3OC(CF)CF)c12	yes
Cc1c(C(N)=O)sc2ncnc(Nc3ccc(F)cc3OCC(F)F)c12	yes
Cc1c(C(=O)NCCCN(C)C)sc2ncnc(Nc3ccc(C#N)cc3OC(CF)CF)c12	yes

Hi there! Is IC50 for `Cc1c(C(N)=O)sc2ncnc(Nc3ccc(F)cc3OCCO)c12` below 20 nM, do you know?
no

Next entry: Cc1c(C(N)=O)sc2ncnc(Nc3ccc(F)cc3OC(C)CNC(=O)OC(C)(C)C)c12 (centres unmarked)
no

Next entry: Cc1c(C(=O)O)sc2ncnc(Nc3ccc(F)cc3OC(C)CC(C)(C)O)c12 (centres unmarked)
no

* * *

experimental.system: human Mnk2a (Homo sapiens (Human))
assay.notes: Mnk2a in vitro kinase assay (indirect competitive fluorescence polarization)
Format: biochemical
condition.parameters: pre-activated GST-Mnk2a 2.5 nM, 20 μM ATP, 30 μM substrate peptide; read-out: MNK2 IC50
pIC50: −log10 of the molar value.
Give True when the value for pIC50 is at least 7. Give False when it is less.

compound	class
CCNC(=O)C(C)Oc1cc(F)ccc1Nc1ncnc2sc(C(=O)NCCCN(C)C)c(C)c12 (centres unmarked)	True
Cc1c(C(=O)NCCO)sc2ncnc(Nc3cccnc3OCC(F)F)c12	True
Cc1c(C(=O)NCCCN2CCOCC2)sc2ncnc(Nc3cccnc3OC(C)C)c12	True
Cc1c(C(=O)NCCO)sc2ncnc(Nc3ccc(F)cc3OC(C)CNC(=O)OC(C)(C)C)c12 (centres unmarked)	False
COC(=O)c1sc2ncnc(Nc3ccc(F)cc3OC(C)CNC(=O)C(C)C)c2c1C (centres unmarked)	False

We now examine a further compound.
# check: pIC50 of Cc1c(C(=O)NCCCN2CCCC2)sc2ncnc(Nc3ccc(F)cc3OC(C)CF)c12 (centres unmarked) is greater than or equal to 7
True

* * *

experimental.system: human Mnk2a (Homo sapiens (Human), UniProt Q9HBH9)
Sequence (Q9HBH9 whole entry): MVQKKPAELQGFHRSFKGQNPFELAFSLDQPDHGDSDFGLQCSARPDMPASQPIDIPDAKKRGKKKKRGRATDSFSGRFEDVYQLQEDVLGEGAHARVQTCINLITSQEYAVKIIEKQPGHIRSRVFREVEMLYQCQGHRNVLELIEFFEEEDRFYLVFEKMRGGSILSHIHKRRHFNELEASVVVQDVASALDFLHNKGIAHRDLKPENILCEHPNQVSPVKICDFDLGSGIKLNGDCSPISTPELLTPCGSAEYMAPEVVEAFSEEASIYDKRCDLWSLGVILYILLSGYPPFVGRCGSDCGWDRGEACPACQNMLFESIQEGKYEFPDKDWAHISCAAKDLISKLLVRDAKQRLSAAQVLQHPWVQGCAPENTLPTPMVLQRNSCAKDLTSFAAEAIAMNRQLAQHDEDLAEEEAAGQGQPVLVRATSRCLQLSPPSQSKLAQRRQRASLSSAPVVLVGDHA
assay.notes: Mnk2a in vitro kinase assay (indirect competitive fluorescence polarization)
condition.parameters: pre-activated GST-Mnk2a 2.5 nM, 20 μM ATP, 30 μM substrate peptide; read-out: MNK2 IC50
Structures can show the parent of a compound that is named as a salt.
reported.metric: IC50 (nM)
Form entry: value (nM) — number only.

# count of solved cases: 3
molecule	IC50 / nM
Cc1c(C(N)=O)sc2ncnc(Nc3ccc(F)cc3OC(C)C#N)c12 (stereo not shown) [Compound 54]	11
Cc1c(C(=O)NCCO)sc2ncnc(Nc3cccnc3OC(C)CCNS(C)(=O)=O)c12 (stereo not shown) [Compound 43]	62
Cc1c(C(=O)NC2CCN(C)CC2)sc2ncnc(Nc3cccnc3OC(C)C)c12 [Compound 36-10]	32

I'd like to know its IC50. The molecule in question is CNC(=O)c1sc2ncnc(Nc3ccc(F)cc3OC(CF)CF)c2c1C [Compound 23-4]
8

Next entry: Cc1c(C(=O)NCCCN(C)C)sc2ncnc(Nc3ccc(F)cc3OC(CO)CO)c12 [Compound 32-31]
146

Next entry: Cc1c(C(=O)NCCO)sc2ncnc(Nc3ccc(F)cc3OC(CO)CO)c12 [Compound 32-29]
170

Next entry: Cc1c(C(=O)NCCCN(C)C)sc2ncnc(Nc3ccc(F)cc3OCC3CC3(F)F)c12 (stereo not shown) [Compound 32-22]
36

Next entry: Cc1c(C(=O)NCCCN(C)C)sc2ncnc(Nc3cccnc3OCC(C)F)c12 (stereo not shown) [Compound 27-4, hydrochloride]
73

Next entry: COCC(C)Oc1ncccc1Nc1ncnc2sc(C(=O)NCCCN(C)C)c(C)c12 (stereo not shown) [Compound 28-5, hydrochloride]
93

Next entry: COCC(CF)Oc1cc(F)ccc1Nc1ncnc2sc(C(=O)NCCCN(C)C)c(C)c12 (stereo not shown) [Compound 32-24]
25

Next entry: Cc1c(C(N)=O)sc2ncnc(Nc3ccc(F)cc3OC(CO)CO)c12 [Compound 32-30]
56

Next entry: Cc1c(C(=O)NCCCN(C)C)sc2ncnc(Nc3ccc(F)cc3OC(C)CC(C)(C)O)c12 (stereo not shown) [Compound 20-3, trifluoroacetate]
59

Next entry: Cc1c(C(N)=O)sc2ncnc(Nc3ccc(F)cc3OC(CF)CF)c12 [Compound 23-3]
4

Next entry: CNC(=O)c1sc2ncnc(Nc3ccc(F)cc3OC(C)CNC(=O)OC(C)(C)C)c2c1C (stereo not shown) [Compound 1-3]
342

Next entry: Cc1c(C(=O)O)sc2ncnc(Nc3ccc(F)cc3OC(C)CNC(=O)OC(C)(C)C)c12 (stereo not shown) [Compound 1-2]
52

Next entry: Cc1c(C(=O)NCCO)sc2ncnc(Nc3ccc(F)cc3OCC3(CC#N)CC3)c12 [Compound 32-14]
65
